These measurements were taken from patent US5061794A.

Tested on: E. coli GN5482
experiment.notes: in vitro antibacterial activity, agar plate dilution method (MIC)
Assay type: cell-based
measurement.setup: Escherichia coli, 16 h; *E. coli GN5482, lactamase-producing strain; 10^6 CFU/ml; read-out: Minimum Inhibitory Concentration (MIC)
Structures can show the parent of a compound that is named as a salt.
// values below are reported MIC
property.label: MIC (µg/mL)

| compound | assay.target | property.label | unit.abbreviation | observed.value |
| --- | --- | --- | --- | --- |
| CO/N=C(\C(=O)N[C@@H]1C(=O)N2C(C(=O)O)=C(CSc3nnc(-c4ccccc4)s3)CS[C@H]12)c1csc(N)n1 [compound 5, trifluoroacetate, reference compound] | E. coli GN5482 | MIC | µg/mL | 0.39 |
| CC(C)(O/N=C(\C(=O)N[C@@H]1C(=O)N2C(C(=O)O)=C(CSc3nnc(-c4ccc(O)cc4)o3)CS[C@H]12)c1csc(N)n1)C(=O)O [compound 4, reference compound] | E. coli GN5482 | MIC | µg/mL | 1.56 |
| CO/N=C(\C(=O)N[C@@H]1C(=O)N2C(C(=O)O)=C(CSc3nc(-c4ccc(OC(C)=O)cc4)c(CC(=O)O)s3)CS[C@H]12)c1csc(N)n1 [compound 18, reference compound] | E. coli GN5482 | MIC | µg/mL | 3.12 |
| CO/N=C(\C(=O)N[C@@H]1C(=O)N2C(C(=O)O)=C(CSc3nnc(-c4ccccc4)o3)CS[C@H]12)c1csc(N)n1 [compound 1, trifluoroacetate, reference compound] | E. coli GN5482 | MIC | µg/mL | 0.78 |
| CC(C)(O/N=C(\C(=O)N[C@@H]1C(=O)N2C(C(=O)O)=C(CSc3nc(C(=O)O)c(-c4ccccc4)s3)CS[C@H]12)c1csc(N)n1)C(=O)O [compound 14, reference compound] | E. coli GN5482 | MIC | µg/mL | 3.12 |

====

Test system: Ps. aeruginosa AKR17
experiment.notes: in vitro antibacterial activity, agar plate dilution method (MIC)
Type: cell-based, Pseudomonas aeruginosa
measurement.setup: Pseudomonas aeruginosa, 16 h; Ps. aeruginosa AKR17; 10^6 CFU/ml; read-out: Minimum Inhibitory Concentration (MIC)
property.label: MIC

| molecule | observed.value |
| --- | --- |
| CON=C(C(=O)NC1C(=O)N2C(C(=O)O)=C(CSc3ncc(-c4ccc(O)c(O)c4)o3)CSC12)c1csc(N)n1 (stereo not drawn) [Ex. 62] | > 100 µg/mL |
| CC(C)(O/N=C(\C(=O)N[C@@H]1C(=O)N2C(C(=O)O)=C(CSc3nnc(-c4ccccc4)s3)CS[C@H]12)c1csc(N)n1)C(=O)O [compound 6, reference compound] | > 100 µg/mL |
| Nc1nc(/C(=N/Oc2ccccc2)C(=O)N[C@@H]2C(=O)N3C(C(=O)O)=C(CSc4nnc(-c5ccc(O)c(O)c5)o4)CS[C@H]23)cs1 [Ex. 22] | > 100 µg/mL |

====

Test system: S. marcescens No. 16-2
experiment.notes: in vitro antibacterial activity, agar plate dilution method (MIC)
Assay type: cell-based
measurement.setup: Serratia marcescens, NO.162, 16 h, read-out: Minimum Inhibitory Concentration (MIC), *S. marcescens No. 16-2, lactamase-producing strain; 10^6 CFU/ml
// values below are reported MIC
property.label: MIC (µg/mL)

| molecule | observed.value |
| --- | --- |
| CCO/N=C(\C(=O)N[C@@H]1C(=O)N2C(C(=O)O)=C(CSc3nnc(-c4ccc(OC(C)=O)c(OC(C)=O)c4)o3)CS[C@H]12)c1csc(N)n1 | 0.78 |
| CC(=O)Oc1ccc(-c2nc(SCC3=C(C(=O)O)N4C(=O)C(NC(=O)C(=NOC5(C(=O)O)CC5)c5csc(N)n5)C4SC3)sc2CC(=O)O)cc1OC(C)=O (stereo not drawn) | 0.78 |
| C#CCON=C(C(=O)NC1C(=O)N2C(C(=O)O)=C(CSc3nc(C(=O)O)c(-c4ccc(O)c(O)c4)s3)CSC12)c1csc(N)n1 (stereo not drawn) | 6.25 |
| CCON=C(C(=O)N[C@@H]1C(=O)N2C(C(=O)[O-])=C(CSc3ncc(-c4ccc(O)c(O)c4)o3)CS[C@H]12)c1csc(N)n1.[Na+] | 6.25 |
| CC(C)(ON=C(C(=O)NC1C(=O)N2C(C(=O)O)=C(CSc3nc(-c4ccc(O)c(O)c4)c(CC(=O)O)s3)CSC12)c1csc(N)n1)C(=O)O (stereo not drawn) | 1.56 |
| CO/N=C(\C(=O)N[C@@H]1C(=O)N2C(C(=O)O)=C(CSc3ncc(-c4ccccc4)o3)CS[C@H]12)c1csc(N)n1 [compound 21, reference compound] | 6.25 |
| CCO/N=C(\C(=O)N[C@@H]1C(=O)N2C(C(=O)O)=C(CSc3nnc(-c4ccc(O)c(O)c4)o3)CS[C@H]12)c1csc(N)n1 | 0.78 |
| CC(C)(ON=C(C(=O)NC1C(=O)N2C(C(=O)O)=C(CSc3nc(C(=O)O)c(-c4ccc(O)c(O)c4)s3)CSC12)c1csc(N)n1)C(=O)O (stereo not drawn) | 0.78 |
| C=CCO/N=C(\C(=O)N[C@@H]1C(=O)N2C(C(=O)O)=C(CSc3nnc(-c4ccc(O)c(O)c4)o3)CS[C@H]12)c1csc(N)n1 | 1.56 |
| Nc1nc(/C(=N/OC(C(=O)O)c2ccccc2)C(=O)N[C@@H]2C(=O)N3C(C(=O)O)=C(CSc4nnc(-c5ccc(O)c(O)c5)o4)CS[C@H]23)cs1 (stereo partly drawn) [Ex. 15] | 0.78 |
| CCON=C(C(=O)N[C@@H]1C(=O)N2C(C(=O)[O-])=C(CSc3nc(-c4ccc(O)c(O)c4)cs3)CS[C@H]12)c1csc(N)n1.[Na+] | 6.25 |
| CO/N=C(\C(=O)N[C@@H]1C(=O)N2C(C(=O)O)=C(CSc3nnc(-c4ccc(OC(C)=O)c(OC(C)=O)c4)o3)CS[C@H]12)c1csc(N)n1 | 1.56 |

====

System: Ps. aeruginosa AKR17
experiment.notes: in vitro antibacterial activity, agar plate dilution method (MIC)
Type: cell-based, Pseudomonas aeruginosa
measurement.setup: Pseudomonas aeruginosa, AKR17, 16 h, read-out: Minimum Inhibitory Concentration (MIC), Ps. aeruginosa AKR17; 10^6 CFU/ml
Protocol: The in vitro antibacterial activities of the compounds of the present invention against various microorganisms, were measured by the following agar plate dilution method. One platinum loopfull of each test microorganism incubated overnight in Mueller Hinton broth, was inoculated to Mueller Hinton agar (inoculum size: 10^6 CFU/ml). […] After incubation at 37° C. for 16 hours, the minimum inhibitory concentrations (MIC: μg/ml) were measured.
// values below are reported MIC

| compound | MIC [µg/mL] |
| --- | --- |
| CC(C)(ON=C(C(=O)NC1C(=O)N2C(C(=O)O)=C(CSc3nc(-c4ccc(O)c(O)c4)cs3)CSC12)c1csc(N)n1)C(=O)O (stereo not drawn) [Ex. 44] | 1.56 |
| CC(C)(O/N=C(\C(=O)N[C@@H]1C(=O)N2C(C(=O)O)=C(CSc3ncc(-c4ccc(O)c(O)c4)o3)CS[C@H]12)c1csc(N)n1)C(=O)O [Ex. 64] | 1.56 |
| Nc1nc(C(=NOC(C(=O)O)c2ccc(O)c(O)c2)C(=O)NC2C(=O)N3C(C(=O)O)=C(CSc4nnc(-c5ccc(O)c(O)c5)s4)CSC23)cs1 (single isomer, unassigned) [Example 38 DB] | 1.56 |
| CC(C)(ON=C(C(=O)NC1C(=O)N2C(C(=O)O)=C(CSc3nc(C(=O)O)c(-c4ccc(O)c(O)c4)s3)CSC12)c1csc(N)n1)C(=O)O (stereo not drawn) [Ex. 50] | 1.56 |
| Nc1nc(/C(=N/OC(C(=O)O)c2ccccc2)C(=O)N[C@@H]2C(=O)N3C(C(=O)O)=C(CSc4nnc(-c5ccc(O)c(O)c5)o4)CS[C@H]23)cs1 (single isomer, unassigned) [Example 24 DA] | 0.78 |
| CC(C)(O/N=C(\C(=O)N[C@@H]1C(=O)N2C(C(=O)O)=C(CSc3nnc(-c4ccc(O)c(O)c4)o3)CS[C@H]12)c1csc(N)n1)C(=O)O [Ex. 11] | 1.56 |

====

Tested on: E. cloacae 963
experiment.notes: in vitro antibacterial activity, agar plate dilution method (MIC)
Assay type: cell-based
measurement.setup: Enterobacter cloacae, 963, 16 h, read-out: Minimum Inhibitory Concentration (MIC), E. cloacae 963; 10^6 CFU/ml
// values below are reported MIC

| molecule | MIC, µg/mL |
| --- | --- |
| CC(C)(O/N=C(\C(=O)N[C@@H]1C(=O)N2C(C(=O)O)=C(CSc3ncc(-c4ccc(O)c(O)c4)o3)CS[C@H]12)c1csc(N)n1)C(=O)O [Ex. 64] | 0.39 |
| CCON=C(C(=O)N[C@@H]1C(=O)N2C(C(=O)[O-])=C(CSc3nc(-c4ccc(OC(C)=O)c(OC(C)=O)c4)cs3)CS[C@H]12)c1csc(N)n1.[Na+] [Ex. 49] | 0.1 |
| CC(C)(ON=C(C(=O)NC1C(=O)N2C(C(=O)O)=C(CSc3nc(-c4ccc(O)c(O)c4)c(CC(=O)O)s3)CSC12)c1csc(N)n1)C(=O)O (stereo not drawn) [Example 59 (I)] | 0.39 |
| Nc1nc(/C(=N/OC2(C(=O)O)CC2)C(=O)N[C@@H]2C(=O)N3C(C(=O)O)=C(CSc4nnc(-c5ccc(O)c(O)c5)s4)CS[C@H]23)cs1 [Ex. 35] | 0.05 |
| CC(C)(ON=C(C(=O)NC1C(=O)N2C(C(=O)O)=C(CSc3nc(C(=O)O)c(-c4ccc(O)c(O)c4)s3)CSC12)c1csc(N)n1)C(=O)O (stereo not drawn) [Ex. 50] | 0.0125 |
| C#CCO/N=C(\C(=O)N[C@@H]1C(=O)N2C(C(=O)O)=C(CSc3nnc(-c4ccc(O)c(O)c4)o3)CS[C@H]12)c1csc(N)n1 [compound 9] | 0.0125 |
